Overview of recorded pIC50 for various molecules
Target: Acetylcholinesterase (Electrophorus electricus)
Sequence (O42275 whole entry): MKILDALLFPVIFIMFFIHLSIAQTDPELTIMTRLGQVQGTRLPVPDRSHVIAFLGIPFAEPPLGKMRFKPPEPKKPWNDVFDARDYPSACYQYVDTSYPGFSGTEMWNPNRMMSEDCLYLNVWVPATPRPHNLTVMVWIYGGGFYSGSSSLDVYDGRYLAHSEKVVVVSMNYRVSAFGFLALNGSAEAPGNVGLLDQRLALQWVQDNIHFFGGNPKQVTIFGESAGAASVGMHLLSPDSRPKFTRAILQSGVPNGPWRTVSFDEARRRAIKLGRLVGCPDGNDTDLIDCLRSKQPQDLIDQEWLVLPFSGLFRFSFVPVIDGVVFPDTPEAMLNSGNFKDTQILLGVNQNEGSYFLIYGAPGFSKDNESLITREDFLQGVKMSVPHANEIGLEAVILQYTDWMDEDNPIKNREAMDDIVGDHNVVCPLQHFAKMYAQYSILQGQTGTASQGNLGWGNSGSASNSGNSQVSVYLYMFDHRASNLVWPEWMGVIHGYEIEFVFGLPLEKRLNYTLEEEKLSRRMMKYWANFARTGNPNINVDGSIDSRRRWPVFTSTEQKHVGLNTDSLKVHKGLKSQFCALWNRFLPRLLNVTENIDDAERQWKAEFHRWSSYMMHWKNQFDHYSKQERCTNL
Assay: Compound was assessed for in vitro inhibition of Acetylcholinesterase isolated from Electrophorus electricus
pIC50: −log10 of the molar value.
Measured Quantity: pIC50

molecule="COc1ccc2c3c1OC1C[C@@H](O)C=C[C@@]31CC[N+](CCCCCCN1CC[C@@]34C=C[C@H](O)C[C@@H]3Oc3c(OC)ccc(c34)C1)=C2 (stereo partly drawn)" val=7.17
molecule="COc1ccc2c3c1OC1C[C@@H](O)C=C[C@@]31CCN(CCCCCCN1CC[C@@]34C=C[C@H](OC)C[C@@H]3Oc3c(OC)ccc(c34)C1)C2 (stereo partly drawn)" val=6.35
molecule="COc1ccc2c3c1OC1C[C@@H](O)C=C[C@@]31CC[N+](CCCCCCCCCCN1CC[C@@]34C=C[C@H](O)C[C@@H]3Oc3c(OC)ccc(c34)C1)=C2 (stereo partly drawn)" val=7.92
